Study System: Gamma-secretase
Protocol Text: Inhibition of gamma-secretase mediated amyloid beta-40 production in HEK293 cell membranes
Type: cell-based, Homo sapiens
Mark class 1 only for IC50 values smaller than 4 nM; exact matches and larger values are class 0.

compound="O=C(OC1(C2CCCC(c3cccc(F)c3)N2S(=O)(=O)c2ccc(Cl)cc2)CC1)N1C2CCC1CC(N1CC[C@@H](O)C1)C2 (mixture of isomers)" cat="class 1"
compound="O=C(OC1(C2CCCC(c3cc(F)cc(F)c3)N2S(=O)(=O)c2ccc(Cl)cc2)CC1)N1CCNCC1 (racemic; form 1)" cat="class 0"
compound="O=C(OC1(C2CCCC(c3cccc(F)c3)N2S(=O)(=O)c2ccc(Cl)cc2)CC1)N1CCN(CCO)CC1 (racemic)" cat="class 1"
compound="CC(C)(OC(=O)N1CCC(N2CCCCC2)CC1)C1CCCC(c2cccc(F)c2)N1S(=O)(=O)c1ccc(Cl)cc1 (racemic)" cat="class 0"
compound="C[C@H]1CN(C(C)(CO)CO)CCN1C(=O)OC1(C2CCCC(c3cccc(F)c3)N2S(=O)(=O)c2ccc(Cl)cc2)CC1 (mixture of isomers)" cat="class 1"
compound="C[C@H]1CNCCN1C(=O)OC1(C2CCCC(c3cc(F)cc(F)c3)N2S(=O)(=O)c2ccc(Cl)cc2)CC1 (mixture of isomers)" cat="class 0"
compound="O=C(OC1(C2CCCC(c3cccc(F)c3)N2S(=O)(=O)c2ccc(Cl)cc2)CC1)N1C2CCC1CC(N1CCCCC1)C2 (racemic)" cat="class 1"
compound="C[C@H]1CN(CC2CC2)CCN1C(=O)OC1(C2CCCC(c3cc(F)cc(F)c3)N2S(=O)(=O)c2ccc(Cl)cc2)CC1 (mixture of isomers)" cat="class 0"
compound="O=C(OCC1CCCC(c2cccc(F)c2)N1S(=O)(=O)c1ccc(Cl)cc1)N1CCC(N2CCCCC2)CC1 (racemic)" cat="class 0"
compound="O=C(OC1(C2CCCC(c3cccc(F)c3)N2S(=O)(=O)c2ccc(Cl)cc2)CC1)N1CCC(N2CCC(F)(F)CC2)CC1 (racemic)" cat="class 1"
compound="CN1CN(C)C2(CCN(C(=O)OC3(C4CCCC(c5cc(F)cc(F)c5)N4S(=O)(=O)c4ccc(Cl)cc4)CC3)CC2)C1=O (racemic)" cat="class 0"
compound="O=C(OCC1CCCC(c2cc(F)cc(F)c2)N1S(=O)(=O)c1ccc(Cl)cc1)N1CCNCC1 (racemic)" cat="class 0"
compound="O=C(OC1([C@H]2CCC[C@@H](c3cc(F)cc(F)c3)N2S(=O)(=O)c2ccc(Cl)cc2)CC1)N1CCC2(CC1)C(=O)NCN2c1ccccc1 (racemic)" cat="class 0"
compound="O=C(OC1(C2CCCC(c3cccc(F)c3)N2S(=O)(=O)c2ccc(Cl)cc2)CC1)N1CCC(N2CCCCC2)CC1 (racemic; form 1)" cat="class 1"
compound="CCC(CO)NC1CC2CCC(C1)N2C(=O)OC1(C2CCCC(c3cccc(F)c3)N2S(=O)(=O)c2ccc(Cl)cc2)CC1 (racemic)" cat="class 0"
compound="CN(c1ccccc1)C1CCN(C(=O)OC2(C3CCCC(c4cccc(F)c4)N3S(=O)(=O)c3ccc(Cl)cc3)CC2)CC1 (racemic)" cat="class 0"
compound="CC1CN(C(=O)OC2(C3CCCC(c4cccc(F)c4)N3S(=O)(=O)c3ccc(Cl)cc3)CC2)CC(C)N1 (racemic)" cat="class 0"
compound="CC(C)N1CCN(C(=O)OC2(C3CCCC(c4cc(F)cc(F)c4)N3S(=O)(=O)c3ccc(Cl)cc3)CC2)CC1 (racemic)" cat="class 1"
compound="CN1CN(C)C2(CCN(C(=O)OCC3CCCC(c4cc(F)cc(F)c4)N3S(=O)(=O)c3ccc(Cl)cc3)CC2)C1=O (racemic)" cat="class 0"
compound="O=C(OC1(C2CCCC(c3cc(F)cc(F)c3)N2S(=O)(=O)c2ccc(Cl)cc2)CC1)N1CCC(N2CCCCC2)CC1 (racemic)" cat="class 1"
compound="O=C(OC1(C2CCCC(c3cc(F)cc(F)c3)N2S(=O)(=O)c2ccc(Cl)cc2)CC1)N1CCN(C2CCCCC2)CC1 (racemic)" cat="class 0"
compound="C[C@H]1CN(CC2CC2)CCN1C(=O)OCC1CCCC(c2cc(F)cc(F)c2)N1S(=O)(=O)c1ccc(Cl)cc1 (mixture of isomers)" cat="class 0"
compound="Cl.O=C(OC1(C2CCCC(c3cccc(F)c3)N2S(=O)(=O)c2ccc(Cl)cc2)CC1)N1CCC(N2CCCCC2)CC1 (racemic; form 2)" cat="class 1"
compound="O=C(OC1(C2CCCC(c3cccc(F)c3)N2S(=O)(=O)c2ccc(Cl)cc2)CC1)N1CCC(O)(C2CC2)CC1 (racemic)" cat="class 1"
compound="O=C(OCC1CCCC(c2cc(F)cc(F)c2)N1S(=O)(=O)c1ccc(Cl)cc1)N1CCN(C2CCCCC2)CC1 (racemic)" cat="class 0"
compound="CCN1CCN(C(=O)OC2(C3CCCC(c4cc(F)cc(F)c4)N3S(=O)(=O)c3ccc(Cl)cc3)CC2)CC1 (racemic)" cat="class 1"
compound="CN(c1ccccc1)C1CCN(C(=O)OCC2CCCC(c3cc(F)cc(F)c3)N2S(=O)(=O)c2ccc(Cl)cc2)CC1 (racemic)" cat="class 0"
